Molecular target: CDK6/CyclinD3 (Homo sapiens)
Construct: purchased Wuxi Biortus Biosciences Co. Ltd
Sequence (Q00534 whole entry, species assumed): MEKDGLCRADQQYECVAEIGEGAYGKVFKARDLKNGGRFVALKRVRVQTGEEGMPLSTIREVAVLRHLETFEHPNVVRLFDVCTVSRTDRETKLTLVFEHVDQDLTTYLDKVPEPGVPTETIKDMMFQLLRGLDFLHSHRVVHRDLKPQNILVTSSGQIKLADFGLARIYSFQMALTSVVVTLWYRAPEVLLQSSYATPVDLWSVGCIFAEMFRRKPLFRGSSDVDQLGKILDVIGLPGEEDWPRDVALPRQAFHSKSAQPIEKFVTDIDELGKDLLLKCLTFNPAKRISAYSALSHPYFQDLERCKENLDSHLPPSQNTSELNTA
Sequence (P30281 whole entry partner, species assumed): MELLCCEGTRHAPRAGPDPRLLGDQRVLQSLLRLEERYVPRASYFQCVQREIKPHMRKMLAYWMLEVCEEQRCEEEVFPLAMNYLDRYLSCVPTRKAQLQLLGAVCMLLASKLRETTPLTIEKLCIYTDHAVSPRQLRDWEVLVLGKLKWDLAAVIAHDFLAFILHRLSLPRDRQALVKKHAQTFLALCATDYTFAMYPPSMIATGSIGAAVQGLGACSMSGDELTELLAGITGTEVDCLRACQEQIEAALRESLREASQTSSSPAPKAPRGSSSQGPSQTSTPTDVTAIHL
Assay: In-vitro kinase inhibitory activity, CDK6/CyclinD3 (Caliper EZ Reader II mobility shift)
Assay type: biochemical
Settings: CDK6/CyclinD3 20 nM, ATP 2 mM, Peptide 1 μM, 27° C., 120 min; read-out: IC50 (half maximal inhibitory concentration, nM) CDK6
Protocol: The final volume for assay was 16 μL, and the reaction temperature was 27° C. […] The compound was dissolved in dimethyl sulfoxide (DMSO) to reach a concentration of 10 mM. […] The final concentrations of the reagents in the assay were as follows. […] The reaction mixture was analyzed on a Caliper EZ Reader II by electrophoretic separation of the fluorescent substrate and the phosphorylated product. […]
Structures can show the parent of a compound that is named as a salt.
testReadout: IC50 (nM)
One number for each entry, in nM.

COc1cc(N2CCN(CCN3CCN(c4ccc(Nc5ncc6c(C)c(C(C)=O)c(=O)n(C7CCCC7)c6n5)nc4)CC3)CC2)cc2c1C(=O)N(C1CCC(=O)NC1=O)C2 (stereo not drawn) [Compound 16]	26.4

Please give IC50, item by item, for the list that follows.
1. CC(=O)c1c(C)c2cnc(Nc3ccc(N4CCN(CCN5CCC(CC6CCN(c7ccc8c(c7)CN(C7CCC(=O)NC7=O)C8=O)CC6)CC5)CC4)cn3)nc2n(C2CCCC2)c1=O (stereo not drawn) [Compound 11, dihydrochloride]
2. CC(=O)c1c(C)c2cnc(Nc3ccc(N4CCN(CCN5CCC(OC6CCN(c7ccc8c(c7)CN(C7CCC(=O)NC7=O)C8=O)CC6)CC5)CC4)cn3)nc2n(C2CCCC2)c1=O (stereo not drawn) [Compound 9, dihydrochloride]
3. CC(=O)c1c(C)c2cnc(Nc3ccc(N4CCN(CCN5CCN(c6ccc7c(c6)CN(C6CCC(=O)NC6=O)C7=O)CC5)CC4)cn3)nc2n(C2CCCC2)c1=O.Cl.Cl (single isomer, unassigned) [Compound 2, dihydrochloride]
4. CC(=O)c1c(C)c2cnc(Nc3ccc(N4CCN(CCN5CCC(CC6CCN(c7ccc8c(c7)CN(C7CCC(=O)NC7=O)C8=O)CC6)CC5)CC4)cn3)nc2n(C2CCCC2)c1=O (stereo not drawn) [Compound 10]
5. CC(=O)c1c(C)c2cnc(Nc3ccc(N4CCN(CC(=O)N5CCC(C(=O)N6CCN(c7ccc8c(c7)CN([C@H]7CCC(=O)NC7=O)C8=O)CC6)CC5)CC4)cn3)nc2n(C2CCCC2)c1=O
6. CC(=O)c1c(C)c2cnc(Nc3ccc(N4CCN(CCN5CCC(CN6CCN(c7c(F)cc8c(c7F)CN(C7CCC(=O)NC7=O)C8=O)CC6)CC5)CC4)cn3)nc2n(C2CCCC2)c1=O (stereo not drawn) [Compound 34, trihydrochloride]
7. CC(=O)c1c(C)c2cnc(Nc3ccc(N4CCN(CCN5CCC(CC6CCN(c7ccc8c(c7Cl)CN(C7CCC(=O)NC7=O)C8=O)CC6)CC5)CC4)cn3)nc2n(C2CCCC2)c1=O (stereo not drawn) [Compound 39, dihydrochloride]

Response given:
1: 21.1; 2: 14.2; 3: 22; 4: 3.21; 5: 30; 6: 9.84; 7: 11.3

Challenge: Which value of IC50 has been reported for CC(=O)c1c(C)c2cnc(Nc3ccc(N4CCC(CCN5CCC(CC6CCN(c7ccc8c(c7)CN(C7CCC(=O)NC7=O)C8=O)CC6)CC5)CC4)cn3)nc2n(C2CCCC2)c1=O (stereo not drawn) [Compound 42, hydrochloride] in the records?
Response given: 19.2
